Molecular target: 72 kDa type IV collagenase (Homo sapiens, UniProt P08253)
Sequence (P08253 whole entry): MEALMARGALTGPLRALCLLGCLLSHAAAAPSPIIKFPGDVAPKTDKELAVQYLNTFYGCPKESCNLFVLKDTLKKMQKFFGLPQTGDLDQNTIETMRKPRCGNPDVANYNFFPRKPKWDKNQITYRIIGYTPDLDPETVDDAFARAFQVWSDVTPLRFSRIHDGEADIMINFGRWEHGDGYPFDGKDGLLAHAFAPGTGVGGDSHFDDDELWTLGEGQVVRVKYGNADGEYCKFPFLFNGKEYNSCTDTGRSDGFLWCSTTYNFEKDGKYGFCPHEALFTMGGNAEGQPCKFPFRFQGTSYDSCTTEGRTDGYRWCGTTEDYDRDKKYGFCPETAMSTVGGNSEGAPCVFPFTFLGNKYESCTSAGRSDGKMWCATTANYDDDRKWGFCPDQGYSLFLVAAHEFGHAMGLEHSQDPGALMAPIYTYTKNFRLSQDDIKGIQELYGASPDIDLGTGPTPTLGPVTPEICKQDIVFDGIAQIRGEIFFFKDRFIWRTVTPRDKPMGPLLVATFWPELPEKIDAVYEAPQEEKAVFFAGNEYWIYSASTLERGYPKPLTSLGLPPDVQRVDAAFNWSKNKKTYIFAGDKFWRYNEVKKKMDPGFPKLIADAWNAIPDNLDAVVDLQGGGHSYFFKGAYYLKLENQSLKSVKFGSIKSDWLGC
observable: pIC50
// pIC50: -log10(molar conc.)

Record excerpt, results attached:
- structure.string: "COC(=O)[C@@H]1C[C@@H](OC(=O)/C=C/c2ccccc2)CN1S(=O)(=O)c1ccccc1"
  measurement.target: "72 kDa type IV collagenase (Homo sapiens, UniProt P08253)"
  quantitative.result: 7.05
- structure.string: "COC(=O)[C@@H]1C[C@@H](OS(C)(=O)=O)CN1S(=O)(=O)c1ccc(C)cc1"
  measurement.target: "72 kDa type IV collagenase (Homo sapiens, UniProt P08253)"
  quantitative.result: 6.70
- structure.string: "COC(=O)[C@@H]1C[C@@H](OC(=O)c2ccccc2)CN1S(C)(=O)=O"
  measurement.target: "72 kDa type IV collagenase (Homo sapiens, UniProt P08253)"
  quantitative.result: 5.28
- structure.string: "COC(=O)[C@@H]1C[C@@H](OC(=O)c2ccc(Cl)cc2)CN1S(C)(=O)=O"
  measurement.target: "72 kDa type IV collagenase (Homo sapiens, UniProt P08253)"
  quantitative.result: 5.82
- structure.string: "COC(=O)[C@@H]1C[C@@H](OS(=O)(=O)c2ccccc2)CN1S(C)(=O)=O"
  measurement.target: "72 kDa type IV collagenase (Homo sapiens, UniProt P08253)"
  quantitative.result: 6.15

Recorded result, COC(=O)[C@@H]1C[C@@H](OS(=O)(=O)c2ccccc2)CN1S(=O)(=O)c1ccc(C)cc1 , pIC50: 7.30

###

Observed pIC50 values for Aminopeptidase N (Homo sapiens, UniProt P15144) are listed in what follows.
Scale: pIC50 equals -log10([C]), with [C] in mol/L.

- structure.string: "Cc1ccc(S(=O)(=O)N2C[C@H](O)C[C@H]2C(=O)NO)cc1"
  quantitative.result: 4.66

Here is another molecule to look at.
Measured pIC50, COC(=O)[C@@H]1C[C@@H](OC(=O)/C=C/c2ccccc2)CN1S(=O)(=O)c1ccc(C)cc1 : 3.77

###

Biological target: Aminopeptidase N (Homo sapiens, UniProt P15144)
Sequence (P15144 whole entry): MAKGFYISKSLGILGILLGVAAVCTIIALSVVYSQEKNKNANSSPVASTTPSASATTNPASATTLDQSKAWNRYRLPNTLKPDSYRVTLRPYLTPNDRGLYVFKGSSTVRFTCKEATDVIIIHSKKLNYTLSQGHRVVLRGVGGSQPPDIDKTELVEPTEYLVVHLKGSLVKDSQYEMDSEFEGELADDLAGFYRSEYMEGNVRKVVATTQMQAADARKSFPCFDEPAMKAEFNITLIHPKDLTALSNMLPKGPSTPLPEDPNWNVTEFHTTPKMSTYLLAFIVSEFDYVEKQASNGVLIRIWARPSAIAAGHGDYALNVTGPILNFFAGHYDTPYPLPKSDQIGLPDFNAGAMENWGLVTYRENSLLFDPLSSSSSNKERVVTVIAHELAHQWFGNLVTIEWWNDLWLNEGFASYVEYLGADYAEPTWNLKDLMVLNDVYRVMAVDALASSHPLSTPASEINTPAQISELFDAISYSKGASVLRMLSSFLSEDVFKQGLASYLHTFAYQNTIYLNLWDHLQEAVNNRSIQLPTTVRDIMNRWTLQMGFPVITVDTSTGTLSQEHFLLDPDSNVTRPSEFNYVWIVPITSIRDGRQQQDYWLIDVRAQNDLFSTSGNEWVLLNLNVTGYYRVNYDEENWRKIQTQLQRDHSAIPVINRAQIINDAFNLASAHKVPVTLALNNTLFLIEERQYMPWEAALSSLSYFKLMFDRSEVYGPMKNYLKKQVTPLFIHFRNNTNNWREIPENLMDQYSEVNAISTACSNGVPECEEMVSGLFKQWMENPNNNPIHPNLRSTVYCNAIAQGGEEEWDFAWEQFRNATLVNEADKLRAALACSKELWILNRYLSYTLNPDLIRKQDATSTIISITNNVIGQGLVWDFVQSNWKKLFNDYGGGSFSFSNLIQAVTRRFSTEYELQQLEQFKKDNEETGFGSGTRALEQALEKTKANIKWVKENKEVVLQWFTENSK
observable: IC50 (µM)
Write it as a number; the unit µM goes unstated.

Use these answered entries as a reference point.
- structure.string: "COC(=O)[C@@H]1C[C@@H](OC(=O)c2ccccc2)CN1S(C)(=O)=O"
  IC50 / µM: 53.6
- structure.string: "COC(=O)[C@@H]1C[C@@H](OS(C)(=O)=O)CN1S(=O)(=O)c1ccccc1"
  IC50 / µM: 39.5

Please fill in: IC50 reported for COC(=O)[C@@H]1C[C@@H](OS(=O)(=O)c2ccc(C)cc2)CN1S(C)(=O)=O = 68.9

Quick note, IC50 for COC(=O)[C@@H]1C[C@@H](OS(=O)(=O)c2ccccc2)CN1S(C)(=O)=O landed at 28.4

IC50 measured on CS(=O)(=O)N1C[C@H](O)C[C@H]1C(=O)NO = 26.3

IC50 recorded for this compound, COC(=O)[C@@H]1C[C@@H](OS(=O)(=O)c2ccc(C)cc2)CN1S(=O)(=O)c1ccccc1 , is 61.3

Record COC(=O)[C@@H]1C[C@@H](OC(=O)/C=C/c2ccccc2)CN1S(C)(=O)=O . Reported IC50: 114
